Sequence of the target: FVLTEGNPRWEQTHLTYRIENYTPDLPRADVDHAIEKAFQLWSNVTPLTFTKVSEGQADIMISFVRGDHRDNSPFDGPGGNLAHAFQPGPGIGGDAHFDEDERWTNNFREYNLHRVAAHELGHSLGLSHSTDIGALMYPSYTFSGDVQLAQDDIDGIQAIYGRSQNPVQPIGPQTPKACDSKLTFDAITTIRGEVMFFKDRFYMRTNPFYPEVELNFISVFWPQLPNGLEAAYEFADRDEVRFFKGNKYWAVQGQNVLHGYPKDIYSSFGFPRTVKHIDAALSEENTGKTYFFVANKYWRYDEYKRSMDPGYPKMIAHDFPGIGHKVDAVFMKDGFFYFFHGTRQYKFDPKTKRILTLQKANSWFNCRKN
pIC50: −log10 of the molar value.
measurement type: pIC50

>>> val("COc1ccc(CNC(=O)c2ccc3sc(=O)n(Cc4ccccc4)c(=O)c3c2)cc1 [Example 1]")
4.52

* * *

IC50 listing for selected compounds.
target under test: catalytic domain of human MMP-13 (Homo sapiens, UniProt P45452)
measurement type: IC50 (nM)

>>> val("COc1ccc(CNC(=O)c2ccc3sc(=O)n(Cc4ccccc4)c(=O)c3c2)cc1 [Example 1]")
37
>>> val("O=C(O)c1ccc(Cn2c(=O)sc3ccc(C#CCc4ccccc4)cc3c2=O)cc1 [Example 3]")
1.2
